Source: patent US8080529B2

// values below are reported Percentage of inhibition of IL-6 production
# Test system: IL-6
# METHOD_DESCRIPTION: Inhibition of IL-6 production by stimulated human peripheral blood leukocytes in vitro
# Assay type: cell-based
# ASSAY_CONDITIONS: 50 μM; LPS-stimulated PBL
The answer is to be given in %; state only the numeric part.

Below, each entry is followed by its recorded Percentage of inhibition of IL-6 production result.
| COMPOUND | OBSERVED_RESULT |
| --- | --- |
| CC[C@H]1OC(=O)[C@H](C)[C@@H](O[C@H]2C[C@@](C)(OC)[C@@H](OCCCN(CC)CC)[C@H](C)O2)[C@H](C)[C@@H](O[C@@H]2O[C@H](C)C[C@H](N(C)C)[C@H]2O)[C@](C)(O)C[C@@H](C)CN(C)[C@H](C)[C@H]2OC(=O)O[C@@]21C | 8 |
| CCC(=O)N(C)[C@H]1C[C@@H](C)O[C@@H](O[C@@H]2[C@@H](C)[C@H](O[C@H]3C[C@@](C)(OC)[C@@H](OC(=O)CCN(CC)CC)[C@H](C)O3)[C@@H](C)C(=O)O[C@H](CC)[C@@](C)(O)[C@H](O)[C@@H](C)NC(=O)[C@H](C)C[C@@]2(C)OC)[C@@H]1O | 60 |
| CCC1OC(=O)C(C)C(OC2CC(C)(OC)C(OC(=O)CCN(CC)CC)C(C)O2)C(C)C(OC2OC(C)CC(N(C)C)C2O)C(C)(OC)CC(C)C(=O)NC(C)C(O)C1(C)O (stereo not shown) | 63 |

// below: Percentage of inhibition of IL-6 production requested for another compound
Problem: I have this compound here, CCC1OC(=O)C(C)C(OC2CC(C)(OC)C(OCCCN3CCN(CCN(CC)CC)CC3)C(C)O2)C(C)C(OC2OC(C)CC(N(C)C)C2O)C(C)(O)CC(C)CN(C)C(C)C2OC(=O)OC12C (stereo not shown) , and I need its recorded Percentage of inhibition of IL-6 production.
Solution: 14

----------
# Tested on: Hep G2
# METHOD_DESCRIPTION: Cytotoxicity assay (MTT), Hep G2 cell line
# Type: cell-based
# ASSAY_CONDITIONS: 50 μM, 24 h
MEASURED_QUANTITY: Percentage of inhibition of cell growth (%)
The answer is to be given in %; state only the numeric part.

| COMPOUND | ASSAY_SYSTEM | UNIT_ANNOTATION | OBSERVED_RESULT |
| --- | --- | --- | --- |
| CC[C@H]1OC(=O)[C@H](C)[C@@H](O[C@H]2C[C@@](C)(OC)[C@@H](OC(=O)CCNC3CC3)[C@H](C)O2)[C@H](C)[C@@H](O[C@@H]2O[C@H](C)C[C@H](N(C)C)[C@H]2O)[C@](C)(OC)C[C@@H](C)C(=O)N[C@H](C)[C@@H](O)[C@]1(C)O | Hep G2 | % | 2 |

Problem: Give the reported Percentage of inhibition of cell growth for CC[C@H]1OC(=O)[C@H](C)[C@@H](O[C@H]2C[C@@](C)(OC)[C@@H](O)[C@H](C)O2)[C@H](C)[C@@H](O[C@@H]2O[C@H](C)C[C@H](N(C)C)[C@H]2O)[C@](C)(O)C[C@@H](C)CN(C)[C@H](C)[C@@H](O)[C@]1(C)O [azithromycin, reference compound] (system: Hep G2).
Solution: 0
